Hello, the source for this data is patent US20190106487A1, in case you need it.

Tested on: T1, human IL-1RAcP on 293T/17-FR cells (human, UniProt Q9NPH3 21-570)
T1 sequence (looked up): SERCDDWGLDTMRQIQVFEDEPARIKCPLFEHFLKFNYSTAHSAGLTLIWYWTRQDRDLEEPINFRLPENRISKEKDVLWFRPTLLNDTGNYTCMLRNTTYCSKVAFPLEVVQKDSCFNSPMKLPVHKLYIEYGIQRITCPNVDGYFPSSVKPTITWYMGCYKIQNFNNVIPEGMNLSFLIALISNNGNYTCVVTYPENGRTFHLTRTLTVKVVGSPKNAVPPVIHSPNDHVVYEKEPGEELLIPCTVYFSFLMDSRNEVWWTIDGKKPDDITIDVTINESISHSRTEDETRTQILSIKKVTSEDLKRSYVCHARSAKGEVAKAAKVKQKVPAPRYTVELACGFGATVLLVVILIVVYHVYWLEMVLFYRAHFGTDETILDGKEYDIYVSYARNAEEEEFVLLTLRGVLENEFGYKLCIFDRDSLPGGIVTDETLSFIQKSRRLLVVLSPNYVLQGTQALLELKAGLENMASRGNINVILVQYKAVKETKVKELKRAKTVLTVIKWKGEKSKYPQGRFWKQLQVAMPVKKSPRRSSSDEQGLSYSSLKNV
Assay procedure: cell-based or functional assay
Recorded metric: functional reporter gene assay (% inhibition), 0.2 µg/mL mAb (%)
Report the figure in % without appending any unit label.

Example binders with recorded functional reporter gene assay (% inhibition), 0.2 µg/mL mAb:
# Binder, Value observed
records = [
    ("P013.S.01.B.F03 (antibody, V domains shown, rabbit monoclonal antibody; also called P013.A.00025.F02) VH: LEQSGGGAEGGLVKPGGSLELCCKASGFSLGSSYWICWVRQAPGKGLEWIGCIYAGSSGITYYASWVSGRFTLSRDIDQSTGCLQLNSLTAADTAMYYCARDIYASTSGYDLWGQGTLVTVSS VL: ALVMTQTPSPVSAAVGGTVTINCQASEDIYSNLAWFQQKPGQPPKLLIYQASTLASGVPSRFSGSGSGTEFTLTISGLQSDDAAAYYCLGVCTYIGADNTLYNTFGGGTEVVVK", 59),
    ("P013.S.01.B.D02 (antibody, V domains shown, rabbit monoclonal antibody; also called P013.A.00022.E06) VH: LEQSGGGAEGGLVKPGGSLELCCKASGFSLTTNYWICWVRQAPGKGLEWIGCIYANSVGSTYYASWVNGRFTLSRDIDQSTGCLQLNSLTAADTAMYYCARVDPGYSFDAFDPWGPGTLVTVSS VL: ALVMTQTPSPVSAAVGGTVTINCQASEDIYSNLAWFQQKPGQPPKLLIYRASTLASGVPSRFSGSGSGTEFTLTISALQSDDAATYYCLGVRTYFNTLNNSFGGGTEVVVK", 68),
    ("P013.S.02.B.C05 (antibody, V domains shown, rabbit monoclonal antibody; also called P013.A.00085.F10) VH: QSLEESGGRLVTPGTPLTLSCTASGFSLSTYYMSWVRQAPGKGLEWIGYMHVGGFPVYASWAKGRFTISKTSTTVDLKITSPTIEDTATYFCARDFGPPNWTLDLWGQGTLVTVSS VL: DVVMTQTPASVEAAVGGTVTIKCQASQSISSYCSWYQQKPGQPPKLLIYRASTLESGVPSRFKGSGSGTEFTLTISDLESADAATYYCQSSYYDLLGNGFGGGTEVVVK", 26),
    ("P013.S.01.B.G02 (antibody, V domains shown, rabbit monoclonal antibody; also called P013.A.00085.B11) VH: QSVEESGGRLVTPGTPLTLTCTVSGFSLSSYYMSWVRQAPGKGLEWIGYIYAAGPITYYATWAKGRFTISKTSTTVDLKITSPTTEDTATYFCVRDGSGSGTYGYNGMDLWGPGTLVTVSS VL: AYDMTQTPASVEAAVGGTVNIKCQASQSISNWLAWYQQKPGQRPKLLIYRASTLASGVSSRFKGSGSGTQFTLTISGVESADAATYYCQQGASTTDVDNVFGGGTEVVVK", 52),
]

// next entry
// P013.S.02.B.G02 (antibody, V domains shown, rabbit monoclonal antibody; also called P013.A.00014.C07) VH: QSLEESGGDLVKPGASLTLTCTASGFSLSSGGMTWVRQAPGKGLEWIGYINTGSGRTYYASWAKGRFIISKTSSTTVSLQMTSLTAADTATYFCAGGLPSDLWGPGTLVTVSS VL: DIVMTQTPSSVEAAVGGTVTIKCQASQSINSRLAWYQQKPGQPPKLLIYDASTLASGVSSRFSGSGTEFTLTISDLESADGATYYCLSHYLTSSSSYGNAFGGGTEVVVK : functional reporter gene assay (% inhibition), 0.2 µg/mL mAb value = 0
